Origin of the recorded values: PubChem BioAssay (NCATS)

molecular target: Cytochrome P450 1A2 (Homo sapiens) (UniProt P05177); assay: p450-cyp1a2 (AID 410); conditions: recombinant CYP1A2, luciferin-ME demethylation, luminescence; series mostly up to 57 µM
Sequence (P05177 whole entry, looked up): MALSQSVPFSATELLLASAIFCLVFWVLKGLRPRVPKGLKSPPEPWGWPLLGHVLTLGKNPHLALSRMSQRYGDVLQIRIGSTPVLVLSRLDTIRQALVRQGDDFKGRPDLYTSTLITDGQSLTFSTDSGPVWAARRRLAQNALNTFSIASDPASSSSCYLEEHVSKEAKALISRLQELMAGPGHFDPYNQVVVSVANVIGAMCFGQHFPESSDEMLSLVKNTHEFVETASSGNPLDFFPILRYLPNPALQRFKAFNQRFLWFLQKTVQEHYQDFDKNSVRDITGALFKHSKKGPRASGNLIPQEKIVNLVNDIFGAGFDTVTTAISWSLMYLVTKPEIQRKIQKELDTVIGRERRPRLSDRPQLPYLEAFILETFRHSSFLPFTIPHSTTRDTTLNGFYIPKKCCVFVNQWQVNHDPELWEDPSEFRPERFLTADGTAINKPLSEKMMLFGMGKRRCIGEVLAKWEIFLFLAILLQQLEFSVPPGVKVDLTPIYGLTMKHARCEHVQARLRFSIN
Results filed as inconclusive are left out. Active and inactive are the calls of the source. The call rests on the fitted dose curve.
Outcome (select one): true = active, false = inactive

Below, 6 molecules whose answers are already recorded.
• O=c1cnc2cnc(Nc3ccccc3)nc2n1CCc1ccccc1 = true
• CCNc1ncc2nc(-c3ccc(Cl)cc3)c(=O)n(C3CC3)c2n1 = true
• CC(=O)N1CCC2(CCCN(Cc3nccs3)C2)CC1 = false
• CN(C)c1ncc2nc(-c3cc(F)cc(F)c3)c(=O)n(Cc3cccs3)c2n1 = true
• COCCn1c(=O)c(-c2ccc(OC)cc2)nc2cnc(Nc3cccc(OC)c3)nc21 = true
• COc1cccc(Nc2ncc3nc(CCc4ccccc4)c(=O)n(C4CC4)c3n2)c1 = true

GET /call?item= COc1cccc(Cn2c(=O)c(-c3cccs3)nc3cnc(Nc4cccc(OC)c4)nc32)c1 returns the recorded outcome of this test. true

And then Cc1noc(C)c1C(=O)N1CCC2(CCN(Cc3nccs3)CC2)CC1 , what is it? true

And then O=C(c1ccncc1)N1CCC2(CCN(Cc3nccs3)CC2)CC1 , what is it? false

And then O=c1c(-c2ccccc2)nc2cncnc2n1Cc1ccccc1Cl , what is it? true

And then COC(=O)N1CCC2(CC1)CN(c1ccc(-c3ccccc3)cc1)C2 , what is it? true

---

experiment: AP1 Signaling Pathway (AID 357); settings: ME-180 (cervical carcinoma) AP-1-bla reporter, EGF-induced, beta-lactamase ratio, 5 h; at 7.69 µM (top of the series) unless noted;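 further: ME-180 reporter cells stimulated with EGF at its EC50 level; on the % scale 0 is the no-effect control and ±100 the full control effect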
Inconclusive results are not listed. Active and inactive are the calls of the source. Calls come from the whole dose curve; as a rule, active = well fitted curve in either direction with a large enough effect (not every such curve was filed as active); inconclusive = small, poorly fitted or top-dose-only effect, or another doubt; inactive = flat fitted curve, though single readings scatter.
Overview of recorded activity change, negative = inhibition for various molecules

In the examples that follow, each entry is paired with its recorded activity change, negative = inhibition.
- O=C(c1ccncc1)N1CCC2(CCCN(C(c3ccccc3)c3ccccc3)C2)CC1: 22.9% (inactive)
- Cn1cccc1C(=O)N1CCC[C@@]2(CCN(C(c3ccccc3)c3ccccc3)C2)C1: 0.163% (inactive)
- O=C(c1cc(C(F)(F)F)cc(C(F)(F)F)c1)N1CCC2(CCCN(Cc3ccccc3)C2)CC1: 15.8% (inactive)
- C/C=C\C(=O)N(CC)c1ccccc1C: -1.59% [at 17.2 µM] (inactive)
- COc1cccc(Cn2c(=O)c(-c3ccc(Cl)cc3)nc3cncnc32)c1: -9.78% (inactive)
- O=C(c1ccco1)N1CCC2(CCCN(c3ccccc3)C2)CC1: -6.34% (inactive)

Any idea what activity change, negative = inhibition was measured for Cc1cnc(CNc2nc(-c3ccoc3)nc3ccccc23)cn1 ? -13.5% (inactive)

And then N#Cc1ccc(CN2CC[C@@]3(CCCN(C(=O)c4ccncc4)C3)C2)cc1 , what is it? -10.1% (inactive)

And then CN(C)C(=O)c1ccc(-c2cncnc2Nc2ccc(F)cc2)cc1 , what is it? -12.8% (inactive)

And then Cc1cnc(CNc2nc(-c3ccccc3C(F)(F)F)nc3ccccc23)cn1 , what is it? -16.3% (inactive)

And then CN1CCN(c2ccnc(-c3cccnc3)n2)CC1 , what is it? -0.185% (inactive)

---

assay: qHTS Assay for Lipid Storage Modulators (AID 1519); settings: Drosophila S3 cells, BODIPY lipid droplet/cell ratio, laser cytometry; at 57.5 µM (top of the series); cells loaded with oleic acid; further: on the % scale 0 is the no-effect control and ±100 the full control effect
Inconclusive results are not listed.
Quantity Kind: activity change, negative = inhibition (%)
Respond with the bare value in %.

• CN1CCN(c2nc(-c3cccc(NS(C)(=O)=O)c3)nc3ccccc23)CC1 = 4.29
• COCC(=O)N1CCC2(CCCN(c3ncccn3)C2)CC1 = 7.95
• CS(=O)(=O)N1CCC2(CCCN(c3cccc(-c4ccccc4)c3)C2)CC1 = -12
• Cn1cccc1C(=O)N1CCC2(CCCN(c3ccncc3)C2)CC1 = 5.74
• COc1ccccc1-c1cncnc1N1CCN(C)CC1 = 3.21
• O=C(c1csnn1)N1CCC2(CCCN(C(c3ccccc3)c3ccccc3)C2)CC1 = -2.23

Now for the molecule whose activity change, negative = inhibition we want.
Any idea what activity change, negative = inhibition was measured for CN(C)C(=O)c1ccc(-c2nc(N(C)C)c3ccccc3n2)cc1 ? 8.51
